Test system: E. coli TESEC Mtb Alr
Experiment: growth (OD600 after 10 h); higher = more growth (less inhibition)
Settings: arabinose 100000 nM; compound 0.1 mM; raw OD600 reference: median of DMSO wells 0.201, cell-free background 0.041
Where a name gives a salt, the structure may show the parent alone.

[
  {
    "COMPOUND": "CN1CCN(CCCN2c3ccccc3Sc3ccc(Cl)cc32)CC1 [Prochlorperazine dimaleate]",
    "growth": 0.0418
  },
  {
    "COMPOUND": "CN[C@H](CC(C)C)C(=O)N[C@H]1C(=O)N[C@@H](CC(N)=O)C(=O)N[C@H]2C(=O)N[C@H]3C(=O)N[C@H](C(=O)N[C@H](C(=O)O)c4cc(O)cc(O)c4-c4cc3ccc4O)[C@H](O)c3ccc(c(Cl)c3)Oc3cc2cc(c3O[C@@H]2O[C@H](CO)[C@@H](O)[C@H](O)[C@H]2O[C@H]2C[C@](C)(N)[C@H](O)[C@H](C)O2)Oc2ccc(cc2Cl)[C@H]1O [Vancomycin hydrochloride]",
    "growth": 0.0413
  }
]
